Data credit: patent US10836759B2

Target: IDH1 R132H (Homo sapiens, UniProt O75874, R132H)
Sequence (O75874 whole entry R132H): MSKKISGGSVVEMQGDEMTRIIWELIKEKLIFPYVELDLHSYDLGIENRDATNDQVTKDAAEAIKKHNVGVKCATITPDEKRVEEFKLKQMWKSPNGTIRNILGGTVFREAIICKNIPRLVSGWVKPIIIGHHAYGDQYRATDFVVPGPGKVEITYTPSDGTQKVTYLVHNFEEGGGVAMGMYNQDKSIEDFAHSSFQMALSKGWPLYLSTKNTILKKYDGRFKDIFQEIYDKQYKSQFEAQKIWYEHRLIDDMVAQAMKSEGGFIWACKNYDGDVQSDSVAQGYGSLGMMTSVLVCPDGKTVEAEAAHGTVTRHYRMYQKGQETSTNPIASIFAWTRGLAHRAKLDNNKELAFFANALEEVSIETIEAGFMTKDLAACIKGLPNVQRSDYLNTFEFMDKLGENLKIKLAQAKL
Assay: Enzymatic inhibition assay, mutant IDH1 R132H (NADPH depletion coupled to diaphorase/resazurin)
Conditions: IDH1 R132H enzyme, IC50 class
Experimental: Assays were conducted in a 1536-well black solid-bottom plate with a final assay volume of 9 μL. Specifically, for IDH1 R132H, 3 μL of enzyme (4 mM β-ME, 0.0005 mg/mL IDH1 R132H, 150 mM NaCl, 20 mM Tris pH 7.5, 10 mM MgCl2, 0.05% BSA) were added to the plate, followed by the addition of 23 nL of test compound in DMSO. […]
Catalogue of IC50 values

Some solved entries appear below for comparison.
# Compound, Experimental system, IC50
measured = [
    ("CCOc1ccc(C#N)cc1-n1c(C=C(C)C)c(C(=O)N2CCNCC2)cc(-c2nc(-c3ccc(Cl)cc3)cs2)c1=O", "IDH1 R132H (Homo sapiens, UniProt O75874, R132H)", "< 300 nM"),
    ("CCc1cccc(CC)c1-n1c(C=C(C)C)c(C(=O)N2CCN[C@H](C)C2)cc(-c2nc(-c3ccc(C(F)F)cc3)cs2)c1=O", "IDH1 R132H (Homo sapiens, UniProt O75874, R132H)", "< 300 nM"),
    ("CCOc1ccc(Cl)c(-n2c(C=C(C)C)c(C(=O)N3CCNCC3)cc(-c3nc(-c4ccc(C(F)F)cc4)cs3)c2=O)c1", "IDH1 R132H (Homo sapiens, UniProt O75874, R132H)", "< 300 nM"),
    ("CCc1cccc(CC)c1-n1c(C=C(C)C)c(C(=O)N2C[C@H]3CC[C@@H](C2)N3)cc(-c2nc(-c3ccc(C(F)F)nc3)cs2)c1=O", "IDH1 R132H (Homo sapiens, UniProt O75874, R132H)", "< 300 nM"),
    ("CCc1ccc(OC)cc1-n1c(C=C(C)C)c(C(=O)N2CCNCC2)cc(-c2nc(-c3ccc(C(F)(F)F)nc3)cs2)c1=O", "IDH1 R132H (Homo sapiens, UniProt O75874, R132H)", "< 300 nM"),
]

Entry `CCc1cccc(CC)c1-n1c(C=C(C)C)c(C(=O)N2CC3CCC(C2)N3)cc(-c2nc(-c3ccc(C(F)F)cc3)cs2)c1=O` — recorded IC50 = < 300 nM

response.value for `CCOc1ccc(Cl)c(-n2c(C=C(C)C)c(C(=O)N3CCNCC3)cc(-c3nc(-c4ccc(C(F)(F)F)cc4)cs3)c2=O)c1` (field: IC50) = < 300 nM

The measured IC50 associated with `CCOc1ccc(Cl)cc1-n1c(C=C(C)C)c(C(=O)N2CCN[C@H](C)C2)cc(-c2nc(-c3ccc(C(F)(F)F)cc3)cs2)c1=O` reads < 300 nM

The value of IC50 measured for the compound `CCc1ccc(Cl)cc1-n1c(C=C(C)C)c(C(=O)N2CCNCC2)cc(-c2nc(-c3ccc(C(F)(F)F)nc3)cs2)c1=O` turned out to be 300 to 1000 nM

The compound listed as CCOc1ccc(Cl)cc1-n1c(C=C(C)C)c(C(=O)N2CC3CCC(C2)N3)cc(-c2nc(-c3ccc(C#N)cc3)cs2)c1=O (single isomer, unassigned) [Compound 141-1] has a reported IC50 of < 300 nM

IC50 reported for this compound `CCOc1ccc(Cl)c(-n2c(C=C(C)C)c(C(=O)N3C[C@H]4CC[C@@H](C3)N4)cc(-c3nc(-c4ccc(Cl)cc4)cs3)c2=O)c1` : < 300 nM

The measured IC50 associated with CCOc1ccc(Cl)cc1-n1c(C=C(C)C)c(C(=O)N2CCNCC2)cc(-c2nc(-c3ccc(C#N)cc3)cs2)c1=O (single isomer, unassigned) [Compound 140-2] reads < 300 nM

Please fill in: IC50 reported for CCc1ccc(Cl)cc1-n1c(C=C(C)C)c(C(=O)N2CCNCC2)cc(-c2nc(-c3ccc(Cl)cc3)cs2)c1=O (single isomer, unassigned) [Compound 144-2] = < 300 nM

Input CCc1ccc(Cl)cc1-n1c(C=C(C)C)c(C(=O)N2CCNCC2)cc(-c2nc(-c3ccc(Cl)cc3)cs2)c1=O [Compound 101] . Output IC50: < 300 nM

Just so you know, measured IC50 for `CCc1cccc(CC)c1-n1c(C=C(C)C)c(C(=O)N2CCN[C@@H](C)C2)cc(-c2nc(-c3ccc(Cl)cc3)cs2)c1=O` came out at < 300 nM

Lab note: CCOc1ccc(Cl)cc1-n1c(C=C(C)C)c(C(=O)N2CCNCC2)cc(-c2nc(-c3ccc(C#N)cc3)cs2)c1=O (single isomer, unassigned) [Compound 140-1] gave IC50 of < 300 nM

response.value for `CCc1cccc(CC)c1-n1c(C=C(C)C)c(C(=O)N2CCN[C@H](C)C2)cc(-c2nc(-c3ccc(Cl)cc3)cs2)c1=O` (field: IC50) = < 300 nM

The value of IC50 measured for the compound CCc1ccc(Cl)cc1-n1c(C=C(C)C)c(C(=O)N2CC3CCC(C2)N3)cc(-c2nc(-c3ccc(Cl)cc3)cs2)c1=O (single isomer, unassigned) [Compound 133-2] turned out to be 1000 to 5000 nM

Value of IC50 reported for the compound `CCOc1ccc(Cl)cc1-n1c(C=C(C)C)c(C(=O)N2CCNC[C@@H]2C)cc(-c2nc(-c3ccc(C(F)(F)F)cc3)cs2)c1=O` is < 300 nM

Looking up CCOc1ccc(Cl)cc1-n1c(C=C(C)C)c(C(=O)N2CC3CCC(C2)N3)cc(-c2nc(-c3ccc(Cl)cc3)cs2)c1=O (single isomer, unassigned) [Compound 113-2] , I found its IC50 recorded as 1000 to 5000 nM

Sure, the documented IC50 for `CCOc1ccc(Cl)cc1-n1c(C=C(C)C)c(C(=O)N2CCNC[C@H]2C)cc(-c2nc(-c3ccc(C(F)(F)F)cc3)cs2)c1=O` is < 300 nM

The reported IC50 of the compound `CCc1ccc(OC)cc1-n1c(C=C(C)C)c(C(=O)N2CC3CCC(C2)N3)cc(-c2nc(-c3ccc(Cl)cc3)cs2)c1=O` was < 300 nM

Sample `CCOc1ccc(Cl)c(-n2c(C=C(C)C)c(C(=O)N3CC4CCC(C3)N4)cc(-c3nc(-c4ccc(OC)nc4)cs3)c2=O)c1` ; IC50 observed: < 300 nM

Note to self: IC50 recorded for `CC(C)=Cc1c(C(=O)N2C[C@H]3CC[C@@H](C2)N3)cc(-c2nc(-c3ccc(Cl)cc3)cs2)c(=O)n1-c1cc(N(C)C)ccc1Cl` was 300 to 1000 nM

IC50 for `CCOc1ccc(Cl)c(-n2c(C=C(C)C)c(C(=O)N3CCNCC3)cc(-c3nc(-c4ccc(OC)nc4)cs3)c2=O)c1` is < 300 nM
